Hey, just so you know, these numbers are from paper PMC5540273.

- Tested on: RET
- settings: concentration: 1 μM, replicates: in singlicate; n = 1
assay.metric: %Inh (%)
Your answer should be a plain number; it is taken to be in %.

Please supply the value of reported %Inh for the item CS(=O)(=O)c1ccc(-c2nc3n(c2-c2ccncc2)CCC3)cc1 [SKF-105942] 0

Write down %Inh measured for item CCCc1ccc(S(=O)(=O)NC2CCN(c3ccnc(Nc4ccc(F)cc4)n3)C2)cc1 (stereo not shown) [GSK1379715] 16

Determine its reported %Inh: Fc1cc(Cl)ccc1Nc1ccnc2cc(-c3ccc(CN4CCCCC4)o3)ccc12 [GW560116] 22

Please report the measured %Inh for COc1cc2ncn(-c3cc(OCC4CCCO4)c(C(N)=O)s3)c2cc1OC (stereo not shown) [GSK204607] 0

Supply reported %Inh belonging to this compound: Cl.c1ccc(-c2n[nH]cc2-c2ccnc(-c3ccc(CN4CCOCC4)cc3)c2)nc1 [GW776245] 0

Please report %Inh for the following compound: COc1cc2ncnc(Nc3ccc4nc(-c5ccccc5)[nH]c4c3)c2cc1OC.Cl [GW282450] 33

Using known records, supply %Inh for Cc1cccc(-c2cc(Nc3ccncc3)c3ccccc3n2)n1 [GSK223675] 0

---

Exercise: for every item that follows, state its recorded %Inh.
- Tested on: TAK1
- Construct: gene MAP3K7
- settings: concentration: 1 μM, replicates: in singlicate; n = 1
Please reply with the bare figure in % and do not write the unit itself.

Identify %Inh associated with the compound "COc1ccc2nc(-c3cccc(C)n3)nc(Nc3ccncc3)c2c1" 0

# return recorded %Inh for input "Cl.NC(=O)c1cccc(Nc2nccc(Nc3ccc(Oc4cccc(Cl)c4)c(Cl)c3)n2)c1" 0

Assign %Inh to the following record: "Cc1ccc(C(=O)Nc2ccc(Nc3ccnc4cc(-c5ccccn5)ccc34)cc2O)cc1.Cl" 0

Give recorded %Inh. "Fc1cccc(COc2nnc(-c3ccc4c(c3)CCO4)o2)c1" 7

Tell me its %Inh given "Fc1cc(Cl)ccc1Nc1ccnc2cc(I)ccc12" as the entry. 0

---

- Tested on: EPHA4
- settings: concentration: 1 μM, replicates: in singlicate; n = 1
Assignment: determine reported %Inh for the given molecules.
Just the number in %, nothing appended.

Tell me its %Inh given COc1ccc(Nc2nccc(NCCNC(=O)Nc3ccccc3F)n2)cc1 [GSK1379901] as the entry. 14

Kindly indicate its recorded %Inh. Item: CS(=O)(=O)c1ccc(-c2nc3n(c2-c2ccncc2)CCC3)cc1 [SKF-105942] 20

Let me know recorded %Inh for Cc1cc(N2Cc3ccccc3C2)nc(Nc2ccc(S(=O)(=O)N3CCOCC3)cc2)n1.Cl [GSK1669917] , thanks. 0

State, in one line, measured %Inh of Cc1ccc(-c2cc(-c3c[nH]nc3-c3ccccn3)ccn2)cc1 [GW684088] 7

Output measured %Inh for this item: "CC(C)(C)c1ccc(C(=O)Nc2cn3cc(-c4cccnc4)ccc3n2)cc1" 25

Answer with the recorded %Inh of O=C(Nc1ccc2c(c1)OCO2)NC1CCN(c2ccnc(Nc3ccc(F)cc3)n2)C1 (stereo not drawn) [GSK1379724] only. 6

Find the measured %Inh of Cc1ccccc1-n1cnc2c(N)ncnc21 [SKF-97510] and report it. 4

Given Cc1cccc(-c2nc(Nc3cccc(C(N)=O)c3)c3ccccc3n2)n1 [GW876019] , respond with its %Inh. 10

Look up and state reported %Inh for CCCc1ccc(S(=O)(=O)NC2CCN(c3ccnc(Nc4ccc(F)cc4)n3)C2)cc1 (stereo not drawn) [GSK1379715] 13

---

- Test system: ARK5
- Construct: gene NUAK1
- settings: concentration: 1 μM, replicates: in singlicate; n = 1
I'd be grateful if you could share measured %Inh for these entries.
State just the number; it will be interpreted in %.

Return the recorded %Inh value; entry: CCn1c(-c2ccccn2)nc2cnccc21 [SB-736398] 0

Please look at this compound and report its %Inh: COc1cccc(NC(=O)NC2CCN(c3ccnc(Nc4ccc(F)cc4)n3)C2)c1 (stereo not shown) [GSK1379721] 9

Let me know recorded %Inh for Cc1ccccc1-n1cnc2c(N)ncnc21 [SKF-97510] , thanks. 0

Give the reported %Inh for this compound. Cc1nnc(-c2ccc3occ(-c4ccc(S(C)=O)cc4)c3c2)[nH]1 (stereo not shown) 6

Output %Inh of Cl.O=C(Nc1cccc(-c2nn3ncccc3c2-c2ccnc(Nc3cccnc3)n2)c1)c1c(F)cccc1F [GSK312879] 0

Specify reported %Inh for the compound shown: Cc1csc(-c2nc(Nc3ccncc3)c3ccccc3n2)n1 [GW869640] 0

Tell me measured %Inh for "Cn1ccc2ncnc(Oc3ccc(NC(=O)Nc4ccccc4)cc3)c21" please. 4

For the compound CN1C(=O)C(Nc2ccc(Cl)c(C(=O)O)c2)=C(c2ccc(Cl)cc2)C1=O [SB-404290] , give its measured %Inh value. 0

For the compound O=C(Nc1n[nH]c2cc(-c3cccc(F)c3F)ccc12)C1CC1 [SB-733894] , report %Inh. 0

Return value of %Inh for input "Fc1cccc(COc2nnc(-c3ccc4c(c3)CCO4)o2)c1" , no commentary. 5

---

- System: ZAK
- settings: concentration: 1 μM, replicates: in singlicate; n = 1
I'd be grateful if you could share measured %Inh for these entries.
Value expressed in %; do not type the unit.

Please give the documented %Inh of O=C(Nc1ccc2c(c1)OCO2)NC1CCN(c2ccnc(Nc3ccc(F)cc3)n2)C1 (stereo not drawn) [GSK1379724] 28

// fetch %Inh given entry C[C@@H]1CCCCN1c1cc(-c2ccc3c(N)n[nH]c3c2)nc(N)n1 [GSK2258759] 0

Quick one: give measured %Inh for Cc1ccccc1-n1cnc2c(N)ncnc21 [SKF-97510] 9

Using known records, supply %Inh for O=C(Nc1n[nH]c2cc(-c3cccc(F)c3F)ccc12)C1CC1 [SB-733894] 0

Tell me %Inh reported for CS(=O)(=O)c1ccc(-c2nc3n(c2-c2ccncc2)CCC3)cc1 [SKF-105942] 0

Return value of %Inh for input Cc1cccc(-c2nc(Nc3cccc(C(N)=O)c3)c3ccccc3n2)n1 [GW876019] , no commentary. 0

Note down %Inh recorded for Nc1nc(-c2nccs2)c(-c2ccnc3ccccc23)s1 [GW693542] 39

Please list %Inh recorded for the compound Cl.NC(=O)c1cccc(Nc2nccc(Nc3ccc(Oc4cccc(Cl)c4)c(Cl)c3)n2)c1 [GW659008] 53

Check the records and state %Inh for "CS(=O)(=O)c1ccc(-c2c(-c3ncn[nH]3)sc(N3CCOCC3)c2C#N)cc1" 0

---

- System: PAK3;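 further: kd values determined as follow-up on hits from a single-replicate KINOMEscan panel screen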
assay.metric: Kd

State its Kd: "O=C1NC(=O)C(N2CCc3ccccc32)=C1c1ccccc1Cl" > 10 µM

---

- Tested on: JAK1(JH1domain-catalytic)
- settings: concentration: 1 μM, replicates: in singlicate; n = 1
We label by threshold. Values of %Inh strictly beneath 10% are satisfied. Values of 10% and up are not satisfied.

Answer whether the molecule "Cc1cccc(-c2cc(Nc3ccncc3)c3ccccc3n2)n1" has %Inh strictly less than 10% not satisfied

%Inh under 10%? Item: COc1ccc(CNC(=O)NC2CCN(c3ccnc(Nc4cc(OC)c(OC)c(OC)c4)n3)C2)cc1 (stereo not drawn) satisfied

Strictly below 10%: is that where %Inh of "Cc1cccc(-c2nc(C)cc(Nc3ccncc3)n2)n1" sits? not satisfied

Criterion: %Inh strictly below 10%. Is it met by "Cl.Oc1ccc(-c2nc(-c3ccccc3)[nH]c2-c2ccncc2)cc1" ? satisfied

Is it true that %Inh reported for "Cc1cccc(-c2nc(Nc3ccncc3)c3ccccc3n2)n1" is less than 10%? satisfied

%Inh strictly < 10% for this molecule? "COc1ccc(C2=C(Nc3cccc(C(=O)O)c3)C(=O)NC2=O)cc1" satisfied

Please indicate whether the reported %Inh of "Cn1cncc1-c1ccc2ncnc(Nc3ccc(OCc4ccccc4)cc3)c2c1" is strictly below 10%. not satisfied

is_below(%Inh, 10%) for "CC(C)(C)c1ccc(C(=O)Nc2cn3cc(Cl)ccc3n2)cc1" ? satisfied

Threshold test, %Inh < 10%: "Cc1cc(N2Cc3ccccc3C2)nc(Nc2ccc(S(=O)(=O)N3CCOCC3)cc2)n1.Cl" not satisfied

---

- Tested on: CHEK2
- settings: concentration: 1 μM, replicates: in singlicate; n = 1
assay.metric: %Inh

Let me know recorded %Inh for "NC(=O)c1nnc2ccccc2c1N" , thanks. 16%

Supply reported %Inh belonging to this compound: "Cl.O=C(Nc1cccc(-c2nn3ncccc3c2-c2ccnc(Nc3cccnc3)n2)c1)c1c(F)cccc1F" 0%

Read the entry "Fc1cc(Cl)ccc1Nc1ccnc2cc(I)ccc12" and write its reported %Inh. 0%

Determine from records and report %Inh for "Cn1cncc1-c1ccc2ncnc(Nc3ccc(OCc4ccccc4)cc3)c2c1" 0%

Return %Inh for the following compound: "COc1ccccc1-c1ccc2c(NC(=O)C3CC3)n[nH]c2n1" 19%
